Give IC50 for every item shown.
Molecular target: human PTP1B (Homo sapiens)
Construct: without the carboxy-terminal hydrophobic region (corresponding to 1-299 aa)
Sequence (P18031 1-299): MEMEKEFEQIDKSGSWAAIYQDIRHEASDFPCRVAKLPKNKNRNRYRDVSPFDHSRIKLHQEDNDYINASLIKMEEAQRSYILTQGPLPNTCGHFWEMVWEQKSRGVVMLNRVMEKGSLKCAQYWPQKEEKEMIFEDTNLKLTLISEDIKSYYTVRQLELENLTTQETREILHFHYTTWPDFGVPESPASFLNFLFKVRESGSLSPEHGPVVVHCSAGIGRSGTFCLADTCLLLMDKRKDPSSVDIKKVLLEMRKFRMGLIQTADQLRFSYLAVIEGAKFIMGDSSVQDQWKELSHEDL
Assay: Enzymatic test system for detecting inhibition of a phosphatase (recombinant hPTP1B; phosphopeptide dephosphorylation / p-nitrophenyl phosphate cleavage)
Settings: inhibition of recombinant hPTP1B (1-299 aa, expressed in Sf9 cells); Table 2 does not say which substrate procedure (A phosphopeptide or B pNPP)
One number for each entry, in µM.

See these solved cases before continuing.
{"columns": ["compound", "value_unit", "IC50"],
 "data": [
  ["O=S1(=O)Cc2cc(Nc3ncc(-c4ccc(-c5ccc(Cl)cc5)cc4)o3)ccc2N1", "µM", 2.16],
  ["O=C(O)c1cc(-c2cnc(Nc3ccc4c(c3)CS(=O)(=O)N4)o2)ccc1O", "µM", 162],
  ["O=S1(=O)Cc2cc(Nc3ncc(-c4cccc(Br)c4)o3)ccc2N1", "µM", 12.6]
]}

Now consider the entry below.
Give IC50 for "O=S1(=O)Cc2cc(Nc3ncc(-c4ccc(C(F)(F)F)cc4)o3)ccc2N1"
15.7
